biological target: Follistatin-related protein 3 (Homo sapiens) (UniProt O95633); experiment: FSTL3 binders on small-molecule microarrays, primary screen, biochemical, small-molecule microarray, 635 nm fluorescence (AID 1105); details: FSTL3 binding, higher = more signal;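 note: score merges emission near 667 nm and signal to noise per printed spot across three slides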
Sequence (O95633 whole entry, looked up): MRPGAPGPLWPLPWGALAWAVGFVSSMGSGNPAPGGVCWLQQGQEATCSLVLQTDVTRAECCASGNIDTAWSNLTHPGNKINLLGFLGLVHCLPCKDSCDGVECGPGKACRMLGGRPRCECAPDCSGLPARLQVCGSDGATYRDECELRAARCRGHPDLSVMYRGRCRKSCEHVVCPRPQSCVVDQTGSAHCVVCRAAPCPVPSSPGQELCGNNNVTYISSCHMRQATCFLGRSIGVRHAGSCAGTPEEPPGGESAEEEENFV
PROPERTY_NAME: composite z-score
Simply state the number, no unit and no words.

Could you tell me which composite z-score is on file for C[C@H]1NC(=O)[C@H](Cc2ccccc2)NC(=O)[C@@]23C(=O)N[C@@H](Cc4ccccc4)C2[C@H](C)[C@@]2(C)O[C@H]2C3/C=C/C/C=C\CNC1=O (some centres undefined) ? -0.0523

Could you tell me which composite z-score is on file for COc1ccc([Si](C)(C)[C@@H]2[C@@H](CCn3cc([C@H](O)c4ccccc4)nn3)O[C@]3(C(=O)N(Cc4ccc(N5C(=O)c6cccc7cccc5c67)cc4)c4ccccc43)[C@H]2C)cc1 ? -0.586

Could you tell me which composite z-score is on file for CC(C)OC(=O)CC(=O)CC(O)c1ccc(C#N)cc1 (centres undefined) ? 0.078

Could you tell me which composite z-score is on file for COCCOC(=O)N1C(=O)[C@@]2(c3cc(C#CC4=CCCCC4)ccc31)[C@H](C(=O)N1CCc3cc(OC)c(OC)cc3C1)[C@H]1C(=O)O[C@H](c3ccccc3)[C@H](c3ccccc3)N1[C@@H]2c1ccccc1OCCO ? 1

----------
Hi there, I'd appreciate the recorded composite z-score for every entry that follows.
target: Left-right determination factor 2 (Homo sapiens); assay: LEFTY2 binders on small-molecule microarrays, primary screen, biochemical, small-molecule microarray, 635 nm fluorescence scan (AID 1110); settings: LEFTY2 binding, higher = more signal
Simply state the number, no unit and no words.

Could you tell me which composite z-score is on file for COC(=O)[C@@]1(Cc2ccc(OC)cc2)[C@H]2c3cc(C(=O)N4CCCC4)n(Cc4cc(F)cc5c4OCOC5)c3C[C@H]2CN1C(=O)c1ccccc1 ? -0.474

Could you tell me which composite z-score is on file for C=CCNC(=O)[C@@H]1[C@H]2C(=O)O[C@H](c3ccccc3)[C@H](c3ccccc3)N2[C@H](c2ccc(OCCO)cc2)[C@@]12C(=O)Nc1ccccc12 ? 0.302

Could you tell me which composite z-score is on file for C=CCC(OC(C)=O)[C@@H]1[C@@H](N(Cc2ccc(-c3cccc(C(F)(F)F)c3)o2)C(=O)c2ccc(C)cc2)c2cc(OCCCO)ccc2N1C(=O)c1ccc(-c2ccccc2)cc1 (stereo not given in full) ? -0.0524

Could you tell me which composite z-score is on file for COc1ccc(C(=O)Nc2cccc(CN3C(=O)[C@]4(O[C@H](CC(=O)N5CCC[C@H]5CO)[C@@H]([Si](C)(C)c5ccc(OC)cc5)[C@@H]4C)c4ccccc43)c2)cc1 ? 0.419

Could you tell me which composite z-score is on file for CCCCCN1CC=CC23O[C@@H]4/C=C\CCC(C)OC(=O)C4[C@H]2C(=O)N(CCCCCO)[C@@H]3C1=O (stereo not given in full) ? -0.594

Could you tell me which composite z-score is on file for C=CC(COC(C)=O)NS(=O)(=O)c1ccc(Br)cc1 (stereo not given) ? 0.65

Could you tell me which composite z-score is on file for O=C1C2C=CC(C(O)c3cccs3)N(Nc3ccccc3F)C2C(=O)N1c1ccccc1 (stereo not given) ? -0.0883

Could you tell me which composite z-score is on file for CN1C(=O)C2C(C1=O)C1C=C(CCCO)C2C(c2cccs2)N1C (stereo not given) ? -0.676

Could you tell me which composite z-score is on file for CC(C)C(=C=CC[C@H](O)c1cccc(OCCO)c1)C[C@H](O)COCc1ccccc1 ? -0.0641

Could you tell me which composite z-score is on file for C=C[C@H](C)[C@@H](O)c1ccc(O)c2ccccc12 ? -0.187

Where these numbers come from: PubChem BioAssay
